Could you please report measured binding of OSCAR-ECD to collagen I with 10 µg/mL mAb for the items listed next?
Biological target: T1, Human OSCAR-ECD (recombinant extracellular domain of human OSCAR) (human, UniProt Q8IYS5 19-218)
T1 construct: also called OSACAR-ECD
T1 chain: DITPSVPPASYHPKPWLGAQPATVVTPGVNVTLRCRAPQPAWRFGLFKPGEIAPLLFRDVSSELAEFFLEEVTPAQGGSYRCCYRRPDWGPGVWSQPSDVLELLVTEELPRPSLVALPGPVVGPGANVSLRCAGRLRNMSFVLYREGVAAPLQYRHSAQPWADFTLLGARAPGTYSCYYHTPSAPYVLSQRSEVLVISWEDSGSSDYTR
Assay: SPR competition, 50 nM OSCAR-ECD premixed with mAb, over immobilised collagen I
One number for each entry.

Binder	Endpoint value
4F3B (antibody, V domains shown, Mouse anti-human OSCAR mAb (its isotype control is mIgG1); The heavy chain entry covers only VH-CH1 and the start of the hinge; It was fluorescein-labelled in the peptide array and Alexa Fluor 647-labelled in the flow binning; also called mAb 4F3B) VH: QVQLQQSGAELAKPGASVKMSCKASGFTFTSYWMHWVKQRPGQGLEWIGYINPSTDYTEYNQKFKDKATLTADKSSSTAYMQLSSLTSEDSAVYYCARRSPFAMDYWGQGTSVTVSS VL: DIVMTQSPSSLTVTAGEKVTMSCKSSQSLLNSGNQKNYLTWYQQKPGQPPKVLIYWASTRESGVPDRFTGSGSGTDFTLTISSVQAEDLAVYYCQNDYSYPLTFGTGTKLELKR	0.7

Consider the record given below.
What measured binding of OSCAR-ECD to collagen I with 10 µg/mL mAb goes with 6F3A (antibody, V domains shown, Mouse anti-OSCAR mAb) VH: EVQLQQSGAELVKPGASVKLSCTASGFNIKDTYVHWVKQRPDQGLEWIGRIDPAIGNTKYDPKFRGKATITADSSSNTAYLQLSSLTSEDTAVYYCARLSYGNYGLDYSMDYWGQGTSVTVSS VL: DIVLTQSPATLSVTPGDSVSLSCRASQSITNNLHWYQQKSHESPRLLIKYASQSISGIPSRFRGSGSGTDFTLSINSVETEDFGVYFCQQSNTWPRTFGGGTKLEIKR ?
9.5
